Tested on: 439559-082-T-J2-PDC spheroid viability;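 also: spheroids exposed to compounds for seven days before readout; 100% = DMSO vehicle control viability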
ASSAY_NAME: Anticancer human tumor 439559-082-T-J2-PDC patient-derived colon adenocarcinoma cell line growth inhibition [POLQ]
REPORTED_CONDITIONS: second compound 1 µM; first compound 0.1 µM; stronger effect = lower value; spheroids with HUVEC and MSC
Method: Multicellular complex tumor spheroid response to Polymerase (POL) inhibitors (novobiocin, ART-558, RP6685) in combination with a variety of drugs and investigational agents in selected tumor cell lines The POL inhibitors (novobiocin, ART-558, and RP6685) were evaluated both individually and in combination with standard of care and investigational anticancer small molecules within a complex spheroid model of solid tumors. . […]
Listed next: entries and their corresponding viability, T/C.
Give a bare numeral; the unit % is implied.

[
  {
    "COMPOUND": "CCc1c2c(nc3ccc(O)cc13)-c1cc3c(c(=O)n1C2)COC(=O)[C@]3(O)CC + Cc1cccc(N(C)C(=O)C2C(O)CCN2c2nc(C)cc(C(F)(F)F)c2C#N)c1",
    "viability, T/C [%]": 67.1
  },
  {
    "COMPOUND": "C=CC(=O)N1CCN(c2nc(=O)n(-c3c(C)ccnc3C(C)C)c3nc(-c4c(O)cccc4F)c(F)cc23)C(C)C1 (stereo not given) + COC1C(OC(N)=O)C(O)C(Oc2ccc3c(O)c(NC(=O)c4ccc(O)c(CC=C(C)C)c4)c(=O)oc3c2C)OC1(C)C",
    "viability, T/C [%]": 105
  },
  {
    "COMPOUND": "CCc1cc2c(N3CCc4c(cc(Cn5ccnc5)cc4-c4cn(C)nc4C(F)(F)F)C3=O)ccnc2c(OC)n1 + COC1C(OC(N)=O)C(O)C(Oc2ccc3c(O)c(NC(=O)c4ccc(O)c(CC=C(C)C)c4)c(=O)oc3c2C)OC1(C)C",
    "viability, T/C [%]": 106
  },
  {
    "COMPOUND": "COc1ccc([C@@H](O)c2cc(-c3ncnc4cc(N5CCOCC5)ccc34)c(F)cc2Cl)nn1 + Nc1ccc(C#CCN(C(=O)Cc2ncc(C(F)(F)F)cc2C(F)(F)F)c2ccc(F)cc2)nn1",
    "viability, T/C [%]": 106
  },
  {
    "COMPOUND": "CC1COCCN1c1cc(C2(O)CC3CCC(C2)O3)c2cnn(-c3ccn[nH]3)c2n1 (stereo not given) + Nc1ccc(C#CCN(C(=O)Cc2ncc(C(F)(F)F)cc2C(F)(F)F)c2ccc(F)cc2)nn1",
    "viability, T/C [%]": 100
  }
]

I have this compound here, C=CCn1c(=O)c2cnc(Nc3ccc(N4CCN(C)CC4)cc3)nc2n1-c1cccc(C(C)(C)O)n1 + Nc1ccc(C#CCN(C(=O)Cc2ncc(C(F)(F)F)cc2C(F)(F)F)c2ccc(F)cc2)nn1 , and I need its recorded viability, T/C. 101

I have this compound here, COc1cc(C2c3cc4c(cc3C(OC3OC5COC(C)OC5C(O)C3O)C3COC(=O)C23)OCO4)cc(OC)c1O (stereo not given) + Nc1ccc(C#CCN(C(=O)Cc2ncc(C(F)(F)F)cc2C(F)(F)F)c2ccc(F)cc2)nn1 , and I need its recorded viability, T/C. 93.5

I have this compound here, O=C(c1cc(Cc2n[nH]c(=O)c3ccccc23)ccc1F)N1CCN(C(=O)C2CC2)CC1 + Cc1cccc(N(C)C(=O)C2C(O)CCN2c2nc(C)cc(C(F)(F)F)c2C#N)c1 , and I need its recorded viability, T/C. 106

I have this compound here, CCc1cc2c(N3CCc4c(cc(Cn5ccnc5)cc4-c4cn(C)nc4C(F)(F)F)C3=O)cc(C)nc2c(OC)n1 + Cc1cccc(N(C)C(=O)C2C(O)CCN2c2nc(C)cc(C(F)(F)F)c2C#N)c1 , and I need its recorded viability, T/C. 104

I have this compound here, COc1cc(C2c3cc4c(cc3C(OC3OC5COC(C)OC5C(O)C3O)C3COC(=O)C23)OCO4)cc(OC)c1O (stereo not given) + Cc1cccc(N(C)C(=O)C2C(O)CCN2c2nc(C)cc(C(F)(F)F)c2C#N)c1 , and I need its recorded viability, T/C. 90.8
